# PROTOCOL NOTES: NCI Yeast Anticancer Drug Screen. Data for the mec2-1 strain (AID 157)
# EXPERIMENTAL SETUP: S. cerevisiae mec2-1 strain, at 50.0 µM, active compounds read high
# Description: Growth inhibition of yeast strains with defined genetic alterations is measured as a screen for potential anti-cancer activity. Selected strains with alterations in DNA damage repair or cell cycle control were exposed to compounds and growth inhibition was measured relative to vehicle treated controls. The strain used in this assay is mec2-1
About 79,000 compounds went through this panel and 15% of them were active in at least one assay; those are over-represented in the sample as a whole.
This listing pairs compounds with measured growth inhibition.
API: value field is a number in %; no unit string.

Entry Cc1ccc(S(=O)c2ccccc2C(O)(C(F)(F)F)C(F)(F)F)cc1 (stereo not given) ; growth inhibition = 75.8

For reference, reported growth inhibition for CC(C)SSC(=O)N1CCCC1C(=O)O (stereo not given) stands at 3.05

`OCCSc1ccc(Cl)cc1` yielded growth inhibition of 25.9

The compound identified as `Cc1cccc(C)c1/[N+]([O-])=C/c1cccc([N+](=O)[O-])c1` registered its growth inhibition at -31.1

compound `COc1ccc(C(=O)c2ccc(C(=O)O)cc2)c(OC)c1` , growth inhibition observed: -17.5

For `CCOC(=O)c1cn(Cc2ccccc2)c(=O)n1Cc1ccccc1` the compound record lists growth inhibition as 23.3

According to the records, this compound `Cc1ccc(N=Nc2c(C)nn(-c3ccccc3)c2C)c(Br)c1` displays growth inhibition of 10.8

Given item Cc1cccc(C(C)(O)c2cnc(C)n2Cc2ccccc2)c1 (stereo not given) , the value recorded as its growth inhibition is 14.2

Lab note: `CC(C)OCCOCCO` gave growth inhibition of -10.5

Per the records, this compound ( `CCOc1ccccc1NC(=O)Nc1cccc(C(F)(F)F)c1` ) has growth inhibition equal to 60.5

Entry COC(=O)C1C(O)CCC2CN3CCc4c([nH]c5cccc(OC)c45)C3CC21 (stereo not given) , growth inhibition reported as -14.8

Reported growth inhibition of `O=S(=O)(O)c1ccc2cc(O)ccc2c1` : 14.6

The compound CC(CCc1ccccc1)N(C)C(=O)CNC(=O)CN1C(=O)c2ccccc2C1=O (stereo not given) showed growth inhibition equal to 1.35

Looking up `CC(C)c1ccc(/C=C/C(=O)c2ccc(F)cc2)cc1` , I found its growth inhibition recorded as 13.5

For OC(CNc1ccc(Cl)nn1)c1ccccc1 (stereo not given) the compound record lists growth inhibition as -10.3

Reported growth inhibition ( `Nc1nc2ncn(COC(CO)CO)c2c(=O)[nH]1` ) = 6.9

Briefly, growth inhibition measured for Cc1cn(C2CCCCC2O)c(=O)[nH]c1=O (stereo not given) : -14

Value of measured growth inhibition for the entry `Cc1nc2[nH]cc(-c3ccccc3)c2c(=N)n1-c1ccc(F)cc1` : 0.8

The measured growth inhibition associated with `Cc1csc2nc(-c3ccco3)nn12` reads -23.9

// `NC(=O)C1C=CN(Cc2ccccc2)C=C1` : growth inhibition value = 7.45

GET /value?item= `CCCCCCCc1cc(=O)[nH]c(=S)[nH]1` &field=growth inhibition returns -4.9

Lab note: measured growth inhibition of `Cc1ccccc1-n1c(SCC(=O)NC(=O)Nc2cccc(Cl)c2)nc2c(Br)cc(Br)cc2c1=O` was -5.5

Entry `O=[N+]([O-])c1cccc2ccc(N/N=C/c3ccccc3O)nc12` , growth inhibition reported as -4.05

Per the record, `Nc1c2ccccc2nc2ccc3c(=O)cc(-c4ccccc4)oc3c12` has growth inhibition of 18.9

Entry `Cn1c(=O)c2[nH]c(SCCc3ccccc3)nc2n(C)c1=O` , growth inhibition reported as 0.05
